Protocol Notes: BSK_3C_uPAR: BioMAP Diversity Plus: 3C Assay for Urokinase-type plasminogen activator receptor (uPAR) Biomarker Activity (AID 2282998)
Particulars: BioMAP 3C HUVEC, uPAR biomarker ELISA; actives raise or lower the signal
Activity calls are given as the source filed them. How the source made its calls: active means hit-call score of the fitted dose curve at least 0.9, where 1 is the maximum; inactive means score below 0.9.
Would you mind answering with one of these outcomes? active, inactive

Past entries and their recorded results:
{"columns": ["Smiles String", "Category"],
 "data": [
  ["BrCCBr", "inactive"],
  ["Cc1ccccc1N", "inactive"],
  ["CC(=O)[O][Hg][c]1ccccc1", "active"],
  ["CCNc1nc(NC(C)(C)C)nc(SC)n1", "inactive"],
  ["Oc1ccc(-c2ccccc2)cc1", "inactive"],
  ["O=Cc1cccc(Oc2ccccc2)c1", "inactive"]
]}

Read the next record carefully.
Write down the call the test reported for this molecule. Item: CCCCCCCCc1ccc(O)cc1 active

* * *

Read-out: Intercellular Adhesion Molecule 1 (ICAM1), ICAM1 (gene 3383)
Protocol Notes: BSK_3C_ICAM1: BioMAP Diversity Plus: 3C Assay for Intercellular Adhesion Molecule 1 (ICAM1) Biomarker Activity (AID 2283003)
Particulars: primary human endothelial cells (HUVEC); actives raise or lower the signal
Activity calls are given as the source filed them. The calls were made as follows: active = hit-call score of the fitted dose curve at least 0.9, where 1 is the maximum; inactive = score below 0.9.
Measured Endpoint: AC50

For orientation, consider the following solved cases.
{"columns": ["Molecule", "AC50"],
 "data": [
  ["COc1cc(-c2ccc(N)c(OC)c2)ccc1N", "inactive"],
  ["CCC(C)(C)c1ccc(O)c(C(C)(C)CC)c1", "12.4 µM (active)"],
  ["C=C(C)C(=O)[O][Sn]([CH2]CCC)([CH2]CCC)[CH2]CCC", "0.155 µM (active)"],
  ["CCOP(=S)(OCC)Oc1nc(Cl)c(Cl)cc1Cl", "inactive"],
  ["BrCCBr", "inactive"],
  ["C[C@@H]1C[C@@H]([C@H](O)CC2CC(=O)NC(=O)C2)C(=O)[C@@H](C)C1", "12.5 µM (active)"],
  ["O=[N+]([O-])c1ccc(O)c([N+](=O)[O-])c1", "inactive"],
  ["NC(=S)Nc1ccccc1", "inactive"],
  ["ClC(Cl)=C(Cl)C(Cl)=C(Cl)Cl", "34 µM (active)"],
  ["CC(=O)OC(c1ccccc1)C(Cl)(Cl)Cl (stereo not given)", "inactive"]
]}

Okay, now this molecule:
Which AC50 is reported for this molecule? CC(=O)[O][Hg][c]1ccccc1 2.69 µM (active)

* * *

Read-out: CD38, CD38 (gene 952)
Protocol Notes: BSK_SAg_CD38: BioMAP Diversity Plus: SAg Assay for CD38 Biomarker Activity (AID 2283087)
Particulars: primary human HUVEC with PBMC; actives raise or lower the signal
Activity calls are given as the source filed them. How the source made its calls: active means hit-call score of the fitted dose curve at least 0.9, where 1 is the maximum; inactive means score below 0.9.
Would you mind answering with one of these outcomes? t = active, f = inactive

Past entries and their recorded results:
{"columns": ["Compound", "Category"],
 "data": [
  ["NC(=O)O", "f"],
  ["CCCCCCCCC(=O)NCc1ccc(O)c(OC)c1", "f"],
  ["Nc1cccc2ccccc12", "f"],
  ["CC(=O)[O][Hg][c]1ccccc1", "t"],
  ["O=[N+]([O-])c1ccc2c3c(cccc13)CC2", "t"]
]}

Write down the call the test reported for this compound. Item: CC(C)(OO)c1ccccc1 f

Write down the call the test reported for this compound. Item: NC(=S)Nc1ccccc1 f

Write down the call the test reported for this compound. Item: COP(=S)(OC)Oc1ccc(Sc2ccc(OP(=S)(OC)OC)cc2)cc1 t

Write down the call the test reported for this compound. Item: O=[N+]([O-])c1ccc(O)c([N+](=O)[O-])c1 f

Write down the call the test reported for this compound. Item: Oc1cccc2cccnc12 f

Write down the call the test reported for this compound. Item: ClC1=C(Cl)[C@]2(Cl)[C@H]3[C@H]([C@H]4C=C[C@H]3C4)[C@@]1(Cl)C2(Cl)Cl t

Write down the call the test reported for this compound. Item: CCOP(=S)(OCC)Oc1ccc(S(C)=O)cc1 (configuration not stated) f

Write down the call the test reported for this compound. Item: Oc1c(I)cc(I)cc1I t

Write down the call the test reported for this compound. Item: COC(=O)c1sccc1S(=O)(=O)NC(=O)Nc1nc(C)nc(OC)n1 f

Write down the call the test reported for this compound. Item: CC1(C)Cc2cccc(O)c2O1 f
